Assay: Weight change in the period of drug administration
Assay type: in vivo, mouse
Conditions: Day 4 from the cancer cell transplantation
property_name: Weight of mouse, Day 4 (g)
Expressed in g, but write only the number.

Completed entries (count: 5):
compound	unit_string	Weight of mouse, Day 4
COc1cc(C2c3cc4c(cc3CC3COC(=O)C32)OCO4)cc(OC)c1OC(=O)CCN (stereo not drawn)	g	25.1
COc1cc(C2c3cc4c(cc3CC3COC(=O)C32)OCO4)cc(OC)c1OC(=O)NC(C)C (stereo not drawn)	g	25
COc1cc(C2c3cc4c(cc3CC3COC(=O)C32)OCO4)cc(OC)c1OC(=O)CCCCCCN (stereo not drawn)	g	26
COc1cc(C2c3cc4c(cc3CC3COC(=O)C32)OCO4)cc(OC)c1OC(=O)NCCCl (stereo not drawn)	g	24.5
COc1cc(C2c3cc4c(cc3CC3COC(=O)C32)OCO4)cc(OC)c1OC(=O)CCCCN (stereo not drawn)	g	25.4

I'd like to know its Weight of mouse, Day 4. The compound in question is COc1cc(C2c3cc4c(cc3CC3COC(=O)C32)OCO4)cc(OC)c1OC(=O)CCCCCN (stereo not drawn)
25.2

Name the reported Weight of mouse, Day 4 value associated with the compound COc1cc(C2c3cc4c(cc3CC3COC(=O)C32)OCO4)cc(OC)c1OC(=O)NCCO (stereo not drawn)
23.8

Returns the measured Weight of mouse, Day 4 for the input compound. Input: COc1cc([C@@H]2c3cc4c(cc3[C@@H](O[C@@H]3O[C@@H]5CO[C@@H](C)O[C@H]5[C@H](O)[C@H]3O)[C@H]3COC(=O)[C@H]23)OCO4)cc(OC)c1O [Etoposide, reference compound]
26

Would you mind telling me what Weight of mouse, Day 4 value was observed for COc1cc(C2c3cc4c(cc3CC3COC(=O)C32)OCO4)cc(OC)c1OC(=O)NC1CCCCC1 (stereo not drawn) ?
26

Quick one: Weight of mouse, Day 4 for COc1cc(C2c3cc4c(cc3CC3COC(=O)C32)OCO4)cc(OC)c1OC(=O)CCCN (stereo not drawn) ?
25

Please look up its Weight of mouse, Day 4: COc1cc(C2c3cc4c(cc3CC3COC(=O)C32)OCO4)cc(OC)c1OC(=O)C(N)CC(C)C (stereo not drawn)
26.1

Any idea what Weight of mouse, Day 4 was measured for COc1cc([C@@H]2c3cc4c(cc3C[C@H]3COC(=O)[C@@H]32)OCO4)cc(OC)c1OC ?
24

----------
Experiment: Weight change in the period of drug administration
Format: in vivo, mouse
Details: Day 6 from the cancer cell transplantation
Recorded Weight of mouse, Day 6 by entry
Field format: number, assumed g, no unit text.

Example molecules with recorded Weight of mouse, Day 6:
molecule	Weight of mouse, Day 6 (g)
COc1cc(C2c3cc4c(cc3CC3COC(=O)C32)OCO4)cc(OC)c1OC(=O)CCCCCCN (centres unmarked)	22.8
COc1cc(C2c3cc4c(cc3CC3COC(=O)C32)OCO4)cc(OC)c1OC(=O)NC1CCCCC1 (centres unmarked)	26
COc1cc(C2c3cc4c(cc3CC3COC(=O)C32)OCO4)cc(OC)c1OC(=O)NC(C)C (centres unmarked)	26.1
COc1cc(C2c3cc4c(cc3CC3COC(=O)C32)OCO4)cc(OC)c1OC(=O)CCN (centres unmarked)	25.3

Fill in: Weight of mouse, Day 6 of COc1cc(C2c3cc4c(cc3CC3COC(=O)C32)OCO4)cc(OC)c1OC(=O)CCCCCN (centres unmarked) is ___
25.5

----------
Assay: Weight change in the period of drug administration
Format: in vivo, mouse
Conditions: Day 6 from the cancer cell transplantation
property_name: Weight of mouse, Day 6 (g)
Field format: number, assumed g, no unit text.

Completed entries (count: 6):
compound	unit_string	Weight of mouse, Day 6
COc1cc(C2c3cc4c(cc3CC3COC(=O)C32)OCO4)cc(OC)c1OC(=O)C(N)CC(C)C (stereo not shown)	g	25
COc1cc(C2c3cc4c(cc3CC3COC(=O)C32)OCO4)cc(OC)c1OC(=O)CCCN (stereo not shown)	g	25.4
COc1cc(C2c3cc4c(cc3CC3COC(=O)C32)OCO4)cc(OC)c1OC(=O)NCCO (stereo not shown)	g	23.8
COc1cc([C@@H]2c3cc4c(cc3[C@@H](O[C@@H]3O[C@@H]5CO[C@@H](C)O[C@H]5[C@H](O)[C@H]3O)[C@H]3COC(=O)[C@H]23)OCO4)cc(OC)c1O [Etoposide, reference compound]	g	26.3
COc1cc(C2c3cc4c(cc3CC3COC(=O)C32)OCO4)cc(OC)c1OC(=O)NCCCl (stereo not shown)	g	25
COc1cc([C@@H]2c3cc4c(cc3C[C@H]3COC(=O)[C@@H]32)OCO4)cc(OC)c1OC	g	25

Consider the compound COc1cc(C2c3cc4c(cc3CC3COC(=O)C32)OCO4)cc(OC)c1OC(=O)CCCCN (stereo not shown) and give its measured Weight of mouse, Day 6.
26

----------
// values below are reported Weight of mouse, Day 1
Assay: Weight change in the period of drug administration
Assay type: in vivo, mouse
Conditions: Day 1 from the cancer cell transplantation
Only the number, expressed in g, is required.

Some entries whose results are on file:
molecule	Weight of mouse, Day 1 / g
COc1cc(C2c3cc4c(cc3CC3COC(=O)C32)OCO4)cc(OC)c1OC(=O)CCCCCN (stereo not shown)	23
COc1cc(C2c3cc4c(cc3CC3COC(=O)C32)OCO4)cc(OC)c1OC(=O)CCCN (stereo not shown)	22.8
COc1cc(C2c3cc4c(cc3CC3COC(=O)C32)OCO4)cc(OC)c1OC(=O)NCCCl (stereo not shown)	23.3
COc1cc(C2c3cc4c(cc3CC3COC(=O)C32)OCO4)cc(OC)c1OC(=O)CCCCN (stereo not shown)	22.8
COc1cc(C2c3cc4c(cc3CC3COC(=O)C32)OCO4)cc(OC)c1OC(=O)C(N)CC(C)C (stereo not shown)	23.3
COc1cc(C2c3cc4c(cc3CC3COC(=O)C32)OCO4)cc(OC)c1OC(=O)CCCCCCN (stereo not shown)	23

For COc1cc(C2c3cc4c(cc3CC3COC(=O)C32)OCO4)cc(OC)c1OC(=O)NC1CCCCC1 (stereo not shown) , what is its reported Weight of mouse, Day 1?
23

----------
System: A549 cell
Test: Cytotoxicity test (SRB method) for A549 cells
Format: cell-based, human
Conditions: A549 human lung cancer cell, SRB, 48 hours incubation; read-out: ED50(nM) for A549
# true (1) = EC50 below 80 nM (exclusive); false (0) = EC50 at/above 80 nM

// below: answered compounds
compound	subject_of_test	category_label
COc1cc(C2c3cc4c(cc3CC3COC(=O)C32)OCO4)cc(OC)c1OC(=O)NC1CCCCC1 (stereo not shown) [Compound 1b-4]	A549 cell	false (0)
COc1cc(C2c3cc4c(cc3CC3COC(=O)C32)OCO4)cc(OC)c1OC(=O)Nc1ccccc1 (stereo not shown) [Compound 1b-8]	A549 cell	false (0)
COc1ccccc1NC(=O)Oc1c(OC)cc(C2c3cc4c(cc3CC3COC(=O)C32)OCO4)cc1OC (stereo not shown) [Compound 1b-13]	A549 cell	true (1)
COc1cc(C2c3cc4c(cc3CC3COC(=O)C32)OCO4)cc(OC)c1OC(=O)Cc1ccc(N)cc1 (stereo not shown) [Compound 1a-16]	A549 cell	false (0)

API: query returns whether the compound falls strictly under 80 nM in EC50. Query: CCNC(=O)Oc1c(OC)cc(C2c3cc4c(cc3CC3COC(=O)C32)OCO4)cc1OC (stereo not shown) [Compound 1b-1]
false (0)

# strict comparison: is reported EC50 < 80 nM? input = COc1cc(C2c3cc4c(cc3CC3COC(=O)C32)OCO4)cc(OC)c1OC(=O)NS(=O)(=O)c1ccccc1 (stereo not shown) [Compound 1b-16]
true (1)

----------
Catalogue of EC50 readings, one per entry.
Tested on: A549 cell
Experiment: Cytotoxicity test (SRB method) for A549 cells
Type: cell-based, human
Settings: A549 human lung cancer cell, SRB, 48 hours incubation; read-out: ED50(nM) for A549
Report the value in nM with no unit label.

Illustrative cases are given below, each with its answer.
compound	EC50 (nM)
COc1cc(C2c3cc4c(cc3CC3COC(=O)C32)OCO4)cc(OC)c1OC(=O)NCCO (stereo not shown)	61.5
COc1cc(C2c3cc4c(cc3CC3COC(=O)C32)OCO4)cc(OC)c1OC(=O)C(N)C(C)C (stereo not shown)	88.2
COc1cc(C2c3cc4c(cc3CC3COC(=O)C32)OCO4)cc(OC)c1OC(=O)Nc1ccc(C)cc1 (stereo not shown)	99.3
COc1cc(C2c3cc4c(cc3CC3COC(=O)C32)OCO4)cc(OC)c1OC(=O)CCCCCCCN (stereo not shown)	74.2
COc1cc(C2c3cc4c(cc3CC3COC(=O)C32)OCO4)cc(OC)c1OC(=O)Nc1ccc(SC)cc1 (stereo not shown)	106

Looking for the measured EC50 of COc1cc(C2c3cc4c(cc3CC3COC(=O)C32)OCO4)cc(OC)c1OC(=O)CCCCN (stereo not shown) , can you help?
90.3

Sample COc1cc(C2c3cc4c(cc3CC3COC(=O)C32)OCO4)cc(OC)c1OC(=O)CCCCCN (stereo not shown) — what was its EC50?
88.5
